Hi there, I'd appreciate the recorded pKi for every entry that follows.
Molecular target: 5-hydroxytryptamine receptor 3A (Homo sapiens, UniProt P46098)
Sequence (P46098 whole entry): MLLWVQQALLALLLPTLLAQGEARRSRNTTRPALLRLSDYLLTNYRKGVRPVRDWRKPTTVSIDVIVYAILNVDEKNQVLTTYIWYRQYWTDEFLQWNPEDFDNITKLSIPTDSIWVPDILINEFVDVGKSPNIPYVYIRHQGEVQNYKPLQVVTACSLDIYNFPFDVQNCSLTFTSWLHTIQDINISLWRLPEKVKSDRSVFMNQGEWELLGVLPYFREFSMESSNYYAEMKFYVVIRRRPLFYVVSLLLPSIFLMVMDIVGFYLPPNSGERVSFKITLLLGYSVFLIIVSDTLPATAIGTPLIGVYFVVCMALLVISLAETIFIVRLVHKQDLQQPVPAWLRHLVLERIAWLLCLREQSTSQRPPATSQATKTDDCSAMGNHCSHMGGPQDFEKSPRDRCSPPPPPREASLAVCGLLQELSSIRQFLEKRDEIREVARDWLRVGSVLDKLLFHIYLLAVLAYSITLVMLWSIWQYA
pKi: −log10 of the molar value.

### Prompt Determine its reported pKi: COCCCN1CCC(NC(=O)c2cc(Cl)c(N)c3c2OCC3)CC1 [PRUCALOPRIDE]
### Response 5.40

### Prompt Determine its reported pKi: CCCCN1CCC(CNC(=O)c2c3n(c4ccccc24)CCCO3)CC1 [PIBOSEROD]
### Response < 6.00

### Prompt Determine its reported pKi: Cn1cc(C(=O)OCC2CCN(CCNS(C)(=O)=O)CC2)c2ccccc21
### Response < 5.00

----------
Hi there, I'd appreciate the recorded pIC50 for every entry that follows.
Target: 5-hydroxytryptamine receptor 1A (Homo sapiens)
Sequence (P08908 whole entry): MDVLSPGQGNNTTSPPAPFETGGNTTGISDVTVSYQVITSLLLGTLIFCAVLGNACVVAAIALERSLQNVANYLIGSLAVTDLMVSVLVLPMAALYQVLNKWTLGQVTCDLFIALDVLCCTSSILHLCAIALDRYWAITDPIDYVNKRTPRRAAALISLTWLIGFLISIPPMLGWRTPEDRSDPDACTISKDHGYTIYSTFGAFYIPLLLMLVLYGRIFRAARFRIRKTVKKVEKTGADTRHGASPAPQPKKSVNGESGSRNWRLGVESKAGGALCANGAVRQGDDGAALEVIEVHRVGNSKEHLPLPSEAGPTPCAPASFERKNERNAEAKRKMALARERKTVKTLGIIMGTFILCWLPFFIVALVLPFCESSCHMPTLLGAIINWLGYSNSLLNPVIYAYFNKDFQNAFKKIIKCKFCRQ
Test: Displacement of [3H]8OH-DPAT from human recombinant 5HT1A receptor
Note on units: pIC50 is unitless, being -log10 of a concentration expressed in mol/L.

### Prompt Determine its reported pIC50: CCCN1CCC(COc2nc3scc(C)c3n3cccc23)CC1
### Response 5.30

### Prompt Determine its reported pIC50: CCCCN1CCC(COc2nc3ccsc3n3cccc23)CC1
### Response 5.28

----------
Target: 5-hydroxytryptamine receptor 3A (Homo sapiens, UniProt P46098)
Sequence (P46098 whole entry): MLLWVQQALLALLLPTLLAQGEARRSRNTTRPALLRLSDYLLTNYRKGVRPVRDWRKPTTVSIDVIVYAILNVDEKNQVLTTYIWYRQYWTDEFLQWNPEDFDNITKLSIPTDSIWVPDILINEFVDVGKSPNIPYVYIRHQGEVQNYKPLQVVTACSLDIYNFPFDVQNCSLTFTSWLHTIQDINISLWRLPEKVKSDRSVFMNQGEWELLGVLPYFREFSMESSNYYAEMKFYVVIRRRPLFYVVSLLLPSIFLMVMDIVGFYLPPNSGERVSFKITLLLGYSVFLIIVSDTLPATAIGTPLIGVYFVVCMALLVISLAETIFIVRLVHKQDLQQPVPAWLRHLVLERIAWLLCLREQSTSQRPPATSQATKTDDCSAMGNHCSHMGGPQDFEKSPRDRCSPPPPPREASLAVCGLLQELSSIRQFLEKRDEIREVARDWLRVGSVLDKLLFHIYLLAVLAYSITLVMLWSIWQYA
Experiment: Antagonist activity at 5HT3 receptor in hybrid NG108-15 cells assessed as inhibition of 5HT-induced current by electrophysiology
Type: functional, cell-based
attribute-measured: IC50 (nM)
Give just the number in nM; leave the unit off.

### Prompt Determine its reported IC50: CCCN1CCC(COc2nc3scc(C)c3n3cccc23)CC1
### Response 385
